- system.tested: EphA4 ligand-binding domain (human, amino acids 22-203) (human, UniProt P54764 22-203, biotin on primary amines (EZ link NHS biotin) in the AlphaScreen assays only)
- Sequence (P54764 22-203): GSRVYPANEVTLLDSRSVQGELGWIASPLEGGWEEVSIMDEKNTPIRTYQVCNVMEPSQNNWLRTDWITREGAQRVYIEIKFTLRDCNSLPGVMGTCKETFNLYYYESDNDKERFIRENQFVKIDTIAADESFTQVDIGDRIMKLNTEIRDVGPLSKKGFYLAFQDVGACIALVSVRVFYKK
- assay.overview: SPR
readout.kind: log10(Kd) (log10 of the value in nM)
Recorded Kd (log10, nM)

As a guide, the following entries are already answered.
• Nb 53 (VHH, biotin on primary amines (EZ link NHS biotin) in the Eph receptor selectivity AlphaScreen only) VHH: QVQLQESGGGVVQAGGSLRLSCAASGRAFSSYAMGWFRQAPGTKREMIAAVTRAGTTNYANPVKGRFTISRDDAKNMVYLQMNNLKPEDSAVYYCNAISPLWDEYDFWGPGTQVTVSS = 1.66
• Nb 22 (VHH, biotin on primary amines (EZ link NHS biotin) in the Eph receptor selectivity AlphaScreen only) VHH: QVQLQESGGGPVRAGESLRLSCTASGRAFSTYTMGWFRQAPGKERELVAVITPGGNTNYADSVKGRFTISRDDAKNTVYLQMNSLKPVDTAVYYCHVVLAVVGTGNEYDVWGQGTQVTVSS = 1.73
• Nb 39 (VHH, biotin on primary amines (EZ link NHS biotin) in the Eph receptor selectivity AlphaScreen only) VHH: QVQLQESGGGLVQPGGSLKLSCAASGFTFSTYAMSWVRQAPGKGLEWVSRINSGGGYTWHADSVKGRFTISRDNARNTVYLQMNNLKPEDTAVYYCTNLNTGWRPEYWGQGTQVTVSS = 1.75

Problem: Requested read-out: log10(Kd). Entry: Nb 57 (VHH, biotin on primary amines (EZ link NHS biotin) in the Eph receptor selectivity AlphaScreen only) VHH: QVQLQESGGGLVQPGGSLRLSCAASGFTFSSYYMYWVRQAPGKGLEWVSTINTGGGSTNYADSVKGRFIISRDNAKNTVYLQMNSLKPEDTAVYYCNAFAAGWGPDYWGQGTQVTVSS
Result: 1.76

Problem: Requested read-out: log10(Kd). Entry: Nb 19 (VHH) VHH: QVQLQESGGGLVQPGGSLRLSCAATGRNFNAYSIAWFRQAPGKEREFVASINWSGSNTYYAVAVKGRFTTSRDNAKNTVYLQMNSLKPEDTAVYYCNAFAAGWGPDYWGQGTQVTVSS
Result: 2.71

Problem: Requested read-out: log10(Kd). Entry: Nb 31 (VHH, biotin on primary amines (EZ link NHS biotin) in the Eph receptor selectivity AlphaScreen only) VHH: QVQLQESGGGLVQAGGSLRLSCAASGFASDAYAIGWFRQAPGTKREMIAAVTKAGATNYANPVKGRFTISRDDAKNMVYLQMNNLKPEDSAVYYCNAISPLWDEYDFWGPGTQVTVSS
Result: 2.47

Problem: Requested read-out: log10(Kd). Entry: Nb 60 (VHH, biotin on primary amines (EZ link NHS biotin) in the Eph receptor selectivity AlphaScreen only) VHH: QVQLQESGGGLVQPGGSLRLSCAASGFTFSRYWIYWVRQAPGKQRELVAAITRNGVTNYADSVKGRFTISTDDNKNTVYLQMNSLKSEDTAVYYCNAWGFLLGDIEDYWGQGTQVTVSS
Result: 1.57

Problem: Requested read-out: log10(Kd). Entry: Nb 50 (VHH, biotin on primary amines (EZ link NHS biotin) in the Eph receptor selectivity AlphaScreen only) VHH: QVQLQESGGGLVQAGGSLRLSCAASGRTFNSYAEAWFRQAPGKEREMIAAVTKAGTTNYANPVKGRFTISRDDAKNMVYLQMNNLKPEDSAVYYCNAISPLWDEYDFWGPGTQVTVSS
Result: 1.94
